Measured EC50 value of cytotoxicity, Huh7 cells (96 h, PrestoBlue) by item
biological target: human GPC3 (Glypican-3) (human, UniProt P51654 25-580); assay: cell-based or functional assay
Reply numerically in µg/mL, unit not repeated.

Known EC50 value of cytotoxicity, Huh7 cells (96 h, PrestoBlue) results, listed for orientation:
[[record]]
binder = "GC33-ZLA (antibody, V domains shown, ZLA linker-payload on cysteine thiols of the antibody freed by TCEP reduction of disulfide bonds; positions not given, Whole antibody; also called GC33 ADC; Anti-GPC3-ZLA) VH: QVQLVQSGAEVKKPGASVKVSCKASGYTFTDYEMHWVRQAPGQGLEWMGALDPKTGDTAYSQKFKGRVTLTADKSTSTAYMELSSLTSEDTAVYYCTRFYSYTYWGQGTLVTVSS VL: DVVMTQSPLSLPVTPGEPASISCRSSQSLVHSNGNTYLHWYLQKPGQSPQLLIYKVSNRFSGVPDRFSGSGSGTDFTLKISRVEAEDVGVYYCSQNTHVPPTFGQGTKLEIK"
quantitative_readout = 0.0148

[[record]]
binder = "GC33-L3-D3 (antibody, V domains shown, MA-PEG4-VC-PAB-DMEA-Duocarmycin SA (L3-D3) on cysteine thiols of the antibody freed by TCEP reduction of disulfide bonds; positions not given) VH: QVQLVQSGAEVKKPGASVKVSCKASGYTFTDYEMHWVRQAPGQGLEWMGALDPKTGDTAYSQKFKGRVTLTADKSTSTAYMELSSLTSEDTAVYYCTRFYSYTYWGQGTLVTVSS VL: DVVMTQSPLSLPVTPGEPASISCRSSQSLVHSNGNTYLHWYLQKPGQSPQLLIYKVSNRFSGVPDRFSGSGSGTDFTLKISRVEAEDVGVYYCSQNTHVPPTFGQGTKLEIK"
quantitative_readout = 0.0694

[[record]]
binder = "Hu 52H5D3B8-8-L1-D1 (antibody, human IgG1, kappa, V domains shown, MC-vc-PAB-MMAE (L1-D1) on cysteine thiols freed by TCEP reduction of disulfide bonds; positions not given) VH: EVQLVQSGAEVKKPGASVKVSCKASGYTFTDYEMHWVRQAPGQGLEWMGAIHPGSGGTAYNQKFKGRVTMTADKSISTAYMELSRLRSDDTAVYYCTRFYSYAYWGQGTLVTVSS VL: DVVMTQTPLSLSVTPGQPASISCRSSQSLVHSNGNTYLQWYLQKPGQSPQLLIYKVSNRFSGVPDRFSGSGSGTDFTLKISRVEAEDVGVYFCSQSIHVPYTFGGGTKVEIKR"
quantitative_readout = 0.038


(Q) Recall and state the measured EC50 value of cytotoxicity, Huh7 cells (96 h, PrestoBlue) for Hu 52H5D3B8-8-L3-D3 (antibody, human IgG1, kappa, V domains shown, MA-PEG4-VC-PAB-DMEA-Duocarmycin SA (L3-D3) on cysteine thiols freed by TCEP reduction of disulfide bonds; positions not given) VH: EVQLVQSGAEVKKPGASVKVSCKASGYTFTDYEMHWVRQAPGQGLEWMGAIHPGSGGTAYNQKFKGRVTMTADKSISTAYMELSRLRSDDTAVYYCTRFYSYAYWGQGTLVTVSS VL: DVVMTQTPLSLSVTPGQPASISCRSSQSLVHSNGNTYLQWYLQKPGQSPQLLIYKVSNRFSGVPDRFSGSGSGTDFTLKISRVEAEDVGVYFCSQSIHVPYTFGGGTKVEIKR .
(A) 0.0274

(Q) Recall and state the measured EC50 value of cytotoxicity, Huh7 cells (96 h, PrestoBlue) for GC33-L1-D1 (antibody, V domains shown, MC-vc-PAB-MMAE (L1-D1) on cysteine thiols of the antibody freed by TCEP reduction of disulfide bonds; positions not given) VH: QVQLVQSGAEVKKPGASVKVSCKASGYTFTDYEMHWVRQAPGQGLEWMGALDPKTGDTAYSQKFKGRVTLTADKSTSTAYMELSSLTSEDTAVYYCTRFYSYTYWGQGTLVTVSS VL: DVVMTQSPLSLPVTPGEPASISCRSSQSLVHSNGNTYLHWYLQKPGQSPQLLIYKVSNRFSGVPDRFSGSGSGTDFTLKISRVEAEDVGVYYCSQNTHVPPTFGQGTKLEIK .
(A) 0.0786

Where do the numbers come from? From patent EP4591887A1.
